Exercise: state measured CC50 at 72 h for each of the compounds provided.
# run.description: Cytotoxicity assay (MTT) in MDCK cells
# Assay type: cell-based, Canine
# run.conditions: dog, read-out: CC50 (50% cytotoxic concentration)
Numbers only, in µM.

For orientation, consider the following solved cases.
| compound | result.number |
| --- | --- |
| CC1(C)CC[C@]2(C(=O)NCCN3CCNCC3)CC[C@]3(C)C(=CCC4[C@@]5(C)CCC(=O)C(C)(C)C5CC[C@]43C)C2C1 (stereo partly shown) [Compound 6] | 442 |
| CC(N)C12CC3CC(CC(C3)C1)C2 (stereo not shown) [Rimantadine, reference compound] | 344 |
| CC1(C)CC[C@]2(C(=O)NCCNCCN)CC[C@]3(C)C(=CCC4[C@@]5(C)CCC(=O)C(C)(C)C5CC[C@]43C)C2C1 (stereo partly shown) [Compound 5] | 48 |

Okay, now this compound:
I am curious: what CC50 at 72 h value has been reported for CCOC(=O)CNC(=O)CN(Cc1ccccc1)C(=O)[C@]12CCC(C)(C)CC1C1=CCC3[C@@]4(C)Cc5c([nH]c6ccccc56)C(C)(C)C4CC[C@@]3(C)[C@]1(C)CC2 (stereo partly shown) [Compound 10] ?
121
